// data source = paper PMC9482650

Target: FRMPD2_3, Q68DX3
Sequence (Q68DX3 1073-1166): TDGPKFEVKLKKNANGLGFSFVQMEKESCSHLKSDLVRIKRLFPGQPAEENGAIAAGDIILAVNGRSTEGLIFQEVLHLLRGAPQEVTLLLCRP
Test: holdup assay
Parameters: key: below the threshold = too weak to quantify, mostly under pKd 3.1 to 4
Settings: plain residues with an end cap or a label only (N-terminal biotin on a linker: ahx)
Quantity measured: pKd

QNTDDVQTSF [ACE2, Q9BYF1]; below the threshold
HTHSYIETHV [CNKSR2, Q8WXI2]; 3.87
TESNLQTSSC [CGN, Q9P2M7]; below the threshold
TQKFRASTAL [FRMPD1, Q5SYB0]; below the threshold
QPRTWLQSPV [RTKN, Q9BST9]; below the threshold

get_value(item= QDEKVKESYV [ABCA1, O95477] , readout=pKd) returns 3.9

Data point: TEAKLTETNA [MYO18A, Q92614] ; pKd = below the threshold

Item: EKQAKGDTEF [CACYBP, Q9HB71] | pKd: below the threshold

Reported pKd ( APSRKLNTEI [TIAM1, Q13009] ) = below the threshold
